Every entry's value here was drawn from paper PMC13026664.

experimentalSystem: elephant shark ERa2 (Callorhinchus milii, UniProt A0A1V1FR36)
Sequence (A0A1V1FR36 1-596): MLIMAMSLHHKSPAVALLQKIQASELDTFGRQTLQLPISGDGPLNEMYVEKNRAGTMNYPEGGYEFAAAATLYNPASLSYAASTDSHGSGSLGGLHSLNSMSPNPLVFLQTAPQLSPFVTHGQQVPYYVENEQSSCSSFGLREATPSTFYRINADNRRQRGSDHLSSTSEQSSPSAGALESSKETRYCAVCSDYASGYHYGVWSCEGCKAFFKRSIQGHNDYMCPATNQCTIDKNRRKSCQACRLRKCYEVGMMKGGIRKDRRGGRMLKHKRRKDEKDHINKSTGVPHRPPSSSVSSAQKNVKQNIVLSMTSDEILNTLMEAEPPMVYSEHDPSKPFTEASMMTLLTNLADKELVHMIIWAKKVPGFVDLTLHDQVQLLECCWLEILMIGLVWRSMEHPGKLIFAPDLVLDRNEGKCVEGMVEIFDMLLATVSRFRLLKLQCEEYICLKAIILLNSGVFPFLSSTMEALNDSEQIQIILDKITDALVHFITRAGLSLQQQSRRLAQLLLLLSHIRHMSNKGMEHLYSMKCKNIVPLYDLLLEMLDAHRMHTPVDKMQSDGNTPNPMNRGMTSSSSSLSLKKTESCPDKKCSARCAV
assayConditions: read-out: EC50 for transcriptional activation; ERa2 in HEK293, 4xERE luciferase reporter
experimentalEndpoint: pEC50
Lab note — pEC50 values are minus log10 of concentrations in M.

Query :: Any idea what its pEC50 is? The compound is `C[C@]12CC[C@@H]3c4ccc(O)cc4CC[C@H]3[C@@H]1C[C@@H](O)[C@@H]2O`
Result :: 9.51

---

experimentalSystem: elephant shark ERa1 (Callorhinchus milii, UniProt A0A1V1FR36)
assayName: cell-based
experimentalEndpoint: pEC50
Lab note — pEC50 values are minus log10 of concentrations in M.

Query :: Any idea what its pEC50 is? The compound is `C[C@]12CC[C@@H]3c4ccc(O)cc4CC[C@H]3[C@@H]1C[C@@H](O)[C@@H]2O`
Result :: 9.70
